pIC50: −log10 of the molar value.
// values below are pIC50; system is Matrix metalloproteinase-9 (Homo sapiens, UniProt P14780)
Sequence (P14780 whole entry): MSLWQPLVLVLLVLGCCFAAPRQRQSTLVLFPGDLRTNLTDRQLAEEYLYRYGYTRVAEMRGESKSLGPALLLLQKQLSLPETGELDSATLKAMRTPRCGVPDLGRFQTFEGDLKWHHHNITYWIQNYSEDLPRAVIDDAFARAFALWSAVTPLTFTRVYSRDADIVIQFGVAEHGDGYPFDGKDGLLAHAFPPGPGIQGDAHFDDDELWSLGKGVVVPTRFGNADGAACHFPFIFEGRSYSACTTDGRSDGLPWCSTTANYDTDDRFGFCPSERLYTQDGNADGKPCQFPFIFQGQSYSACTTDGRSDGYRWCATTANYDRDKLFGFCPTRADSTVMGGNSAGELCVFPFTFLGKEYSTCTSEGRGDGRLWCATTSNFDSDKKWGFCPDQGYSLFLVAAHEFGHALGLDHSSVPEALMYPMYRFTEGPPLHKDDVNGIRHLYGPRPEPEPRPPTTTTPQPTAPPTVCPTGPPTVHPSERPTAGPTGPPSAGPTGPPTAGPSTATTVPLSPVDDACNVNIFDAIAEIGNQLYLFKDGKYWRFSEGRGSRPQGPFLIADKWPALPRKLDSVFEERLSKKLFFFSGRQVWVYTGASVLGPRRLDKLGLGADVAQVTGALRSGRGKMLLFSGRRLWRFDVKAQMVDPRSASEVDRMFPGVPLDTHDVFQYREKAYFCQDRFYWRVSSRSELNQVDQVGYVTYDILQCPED

What value of pIC50 has been recorded for this entry: O=C(NO)[C@H]1CC2(CC2)CN[C@@H]1C(=O)N1CC=C(c2ccccc2)CC1
6.95

Follow-up entry: CN1CC2(CC2)C[C@H](C(=O)NO)[C@H]1C(=O)N1CCN(c2ccccc2)CC1
< 5.30

Follow-up entry: Cc1cc([N+](=O)[O-])ccc1C1=CCN(C(=O)[C@H]2NCC3(CC3)C[C@@H]2C(=O)NO)CC1
< 5.30

Follow-up entry: O=C(NO)[C@H]1CC2(CC2)CN[C@@H]1C(=O)N1CC[C@H](c2ccccc2)C1
< 5.52

Follow-up entry: CCC(C)NC(=O)[C@@H]1[C@@H](C(=O)NO)CC2(CC2)CN1C (stereo partly specified)
< 5.30

Follow-up entry: O=C(NO)[C@H]1CC2(CC2)CN[C@@H]1C(=O)N1CC=C(c2ccccc2)C1
7.11
